All figures here come from paper PMC5540273.

tested on: SRPK2; details: concentration: 1 μM, replicates: in singlicate; n = 1
Quick reference: %Inh of the listed items.
In your response, put the unit directly after the numeric value.

Molecule: Cc1cccc2c(-c3ccncn3)c(-c3ccc(F)cc3)nn12
System under test: SRPK2
%Inh: 0%
//
Molecule: CS(=O)(=O)CCNCc1nc(-c2ccc3ncnc(Nc4ccc(OCc5ccccc5)c(Cl)c4)c3c2)cs1.Cl
System under test: SRPK2;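 further: KINOMEscan kinase panel screen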
%Inh: 36%

## Input So what's the measured %Inh for this one? "Nc1ncnc2occ(-c3ccc4c(c3)CCN4C(=O)Cc3cc(F)ccc3F)c12"
## Output 0%

## Input # lookup: %Inh of "CC(=O)c1c(C)c2cnc(Nc3ccc(N4CCNCC4)cn3)nc2n(C2CCCC2)c1=O"
## Output 0%

## Input Return reported %Inh; argument: Cn1cncc1C(=O)NC1CCN(c2ccnc(Nc3ccc(F)cc3)n2)C1 (stereo not drawn)
## Output 0%

## Input What value of measured %Inh is listed for "CSc1ccc(-c2nc3n(c2-c2ccncc2)CCC3)cc1" ?
## Output 25%

## Input Field request: %Inh | item: "Cc1ccc(NC(=O)Nc2ccc(Cl)cc2)cc1-c1ccc(C(=O)Nc2ccncc2)cc1"
## Output 0%

## Input Requested field: %Inh. Item: "Cc1ccccc1Cn1ccn2c(=O)cc(N3CCOCC3)nc12"
## Output 0%

## Input Could you share which %Inh value was measured for "COc1ccc(Nc2nccc(-c3ccc(NC(=O)c4cc5cc(F)ccc5[nH]4)cc3)n2)cc1" ?
## Output 14%
